Tested on: HEp2 or BSC1 cells
experiment_notes: Toxicity to cells in the TCID50 screen (mock control)
Format: cell-based
study_conditions: cellular RSV TCID50 assay tables
recorded_endpoint: Toxicity

Worked examples, 6 molecules total:
> print(dat)
                                   molecule  recorded.endpoint   value.reported
1  COc1cccc(NC(=O)Nc2cccc(NC(=O)Nc3cccc(OC)c3)c2)c1           Toxicity  toxic at 100 μM
2                   Cc1ccccc1NC(=S)N1CCOCC1           Toxicity              low
3             Cc1ccccc1NC(=S)Nc1cccc(C#N)c1           Toxicity              low
4    Cc1ccccc1NC(=S)Nc1cccc([N+](=O)[O-])c1           Toxicity  toxic at 100 μM
5             Cc1ccccc1NC(=O)Nc1ccc(C#N)cc1           Toxicity              low
6              COc1ccc(NC(=O)Nc2ccccc2C)cc1           Toxicity              low

State the recorded Toxicity for every item in the following list.
1. N#Cc1cccc(NC(=O)Nc2ccccn2)c1
2. CC1CCCCC1NC(=O)Nc1ccc(C#N)cc1 (stereo not drawn)

Ans.
1. toxic at 100 μM
2. low
